# protocolSummary: Cytotoxicity against human HL60 cells assessed growth inhibition at 40 uM after 48 hrs by MTS assay relative to control
# Assay type: functional
# particulars: HL-60, 48 h, read-out: GI
valueType: inhibition of growth at 40 µM

# count of solved cases: 5
{"compound": "C=C1C(=O)[C@]23C[C@@H]1CC[C@H]2C12C(O)O[C@@H](OC)[C@@H]1C(C)(C)CC[C@@H]2OC3=O (stereo partly specified)", "inhibition of growth at 40 µM": "> 50%"}
{"compound": "C=C1C(=O)[C@]23C[C@@H]1CC[C@H]2C12C(O)O[C@@H](O)[C@@H]1C(C)(C)CC[C@@H]2OC3=O (stereo partly specified)", "inhibition of growth at 40 µM": "> 50%"}
{"compound": "C=C1C(=O)[C@]23C[C@@H]1CC[C@H]2C12CO[C@@H](O)[C@@H]1C(C)(C)[C@@H](O)C[C@@H]2OC3=O (stereo partly specified)", "inhibition of growth at 40 µM": "> 50%"}
{"compound": "C=C1C(=O)[C@]23C[C@@H]1CC[C@H]2[C@@]12CO[C@@H](O)[C@@H]1C(C)(C)CC[C@@H]2OC3=O", "inhibition of growth at 40 µM": "> 50%"}
{"compound": "C=C1C(=O)[C@]23C[C@@H]1CC[C@H]2C12[C@H](OC)O[C@@H](O)[C@@H]1C(C)(C)CC[C@@H]2OC3=O (stereo partly specified)", "inhibition of growth at 40 µM": "> 50%"}

# context switch: different compound, same inhibition of growth at 40 µM
Sample C=C1C(=O)[C@]23C[C@@H]1C[C@@H](O)[C@H]2C12CO[C@@H]4OC[C@](C)(CC[C@@H]1OC3=O)[C@@H]42 (stereo partly specified) ; inhibition of growth at 40 µM observed: > 50%

###

Below: a set of entries, each annotated with reported IC50.
# protocolSummary: Cytotoxicity against human SMMC7721 cells assessed as cell viability after 48 hrs by MTS assay
# Type: functional, cell-based
# particulars: SMMC-7721, 48 h

# count of solved cases: 5
{"compound": "CO[C@@H]1O[C@@H](O)[C@@H]2C(C)(C)CC[C@@H]3OC(=O)[C@@]45C[C@H](CC[C@H]4C132)[C@@H](C)C5=O (stereo partly specified)", "experimentalValue": "> 40 µM"}
{"compound": "C=C1C(=O)[C@]23C[C@@H]1CC[C@H]2C12C(O)O[C@@H](O)[C@@H]1C(C)(C)CC[C@@H]2OC3=O (stereo partly specified)", "experimentalValue": "31.8 µM"}
{"compound": "CO[C@H]1O[C@@H](O)[C@@H]2C(C)(C)CC[C@@H]3OC(=O)[C@@]45C[C@H](CC[C@H]4C132)[C@@H](C)C5=O (stereo partly specified)", "experimentalValue": "> 40 µM"}
{"compound": "C=C1C(=O)[C@@]23C[C@@H]1C[C@H]1O[C@@H]4OC[C@]5([C@H](CCC(C)(C)[C@@H]45)OC2=O)[C@H]13", "experimentalValue": "15.8 µM"}
{"compound": "CC1(C)[C@@H]2C[C@@H]3OC(=O)[C@@]45C[C@H](CC[C@H]4[C@]34C(O[C@@H](O)[C@H]14)O2)[C@](C)(O)C5=O", "experimentalValue": "> 40 µM"}

# context switch: different compound, same IC50
Sample C[C@H]1C(=O)[C@]23C[C@@H]1CC[C@H]2C12[C@H](O)OC[C@@H]1C(C)(C)CC[C@@H]2OC3=O (stereo partly specified) ; IC50 observed: > 40 µM

###

Below: a set of entries, each annotated with reported IC50.
# Test system: MCF7
# protocolSummary: Cytotoxicity against human MCF7 cells assessed as cell viability after 48 hrs by MTS assay
# Assay type: functional, cell-based
# particulars: MCF7, 48 h

# count of solved cases: 4
{"compound": "CC1(C)[C@@H]2C[C@@H]3OC(=O)[C@@]45C[C@H](CC[C@H]4[C@]34C(O[C@@H](O)[C@H]14)O2)[C@](C)(O)C5=O", "valueType": "IC50", "experimentalValue": "> 40 µM"}
{"compound": "C[C@]12CC[C@@H]3OC(=O)[C@@]45C[C@H](C[C@@H](O)[C@@H]4[C@]34CO[C@H](OC1)[C@H]24)[C@@]1(CCC2=C(O1)[C@]13C[C@@H]2C[C@@H](O)[C@@H]1[C@]12CO[C@@H]4OC[C@](C)(CC[C@@H]1OC3=O)[C@@H]42)C5=O", "valueType": "IC50", "experimentalValue": "> 40 µM"}
{"compound": "CO[C@@H]1OC(O)C23[C@H](CCC(C)(C)[C@@H]12)OC(=O)[C@@]12C[C@H](CC[C@@H]31)[C@@H](C)C2=O (some centres not stated)", "valueType": "IC50", "experimentalValue": "> 40 µM"}
{"compound": "C=C1C(=O)[C@]23C[C@@H]1CC[C@H]2C12[C@@H](OC)O[C@@H](O)[C@@H]1C(C)(C)CC[C@@H]2OC3=O (some centres not stated)", "valueType": "IC50", "experimentalValue": "3.9 µM"}

Sample C=C1C(=O)[C@]23C[C@@H]1CC[C@H]2C12[C@H](OC)O[C@@H](O)[C@@H]1C(C)(C)CC[C@@H]2OC3=O (some centres not stated) ; IC50 observed: 3.2 µM

Sample CO[C@H]1O[C@@H](O)[C@@H]2C(C)(C)CC[C@@H]3OC(=O)[C@@]45C[C@H](CC[C@H]4C132)[C@@H](C)C5=O (some centres not stated) ; IC50 observed: > 40 µM

Sample C=C1C(=O)[C@]23C[C@@H]1CC[C@H]2C12C(O)O[C@@H](OC)[C@@H]1C(C)(C)CC[C@@H]2OC3=O (some centres not stated) ; IC50 observed: 2.4 µM

Sample C[C@H]1C(=O)[C@]23C[C@@H]1CC[C@H]2C12[C@H](O)OC[C@@H]1C(C)(C)CC[C@@H]2OC3=O (some centres not stated) ; IC50 observed: > 40 µM

Sample C=C1C(=O)[C@]23C[C@@H]1C[C@@H](O)[C@H]2C12CO[C@@H]4OC[C@](C)(CC[C@@H]1OC3=O)[C@@H]42 (some centres not stated) ; IC50 observed: 13.7 µM

Sample C[C@H]1C(=O)[C@]23C[C@@H]1CC[C@H]2C12[C@H](CCC(C)(C)[C@H]1CO[C@@H]2O)OC3=O (some centres not stated) ; IC50 observed: > 40 µM

Sample C=C1[C@H]2CC[C@H]3C45C(O)O[C@@H](OC)[C@@H]4C(C)(C)CC[C@@H]5OC(=O)[C@]3(C2)[C@@H]1O (some centres not stated) ; IC50 observed: > 40 µM

Sample C[C@H]1C(=O)[C@]23C[C@@H]1CC[C@H]2C12C(O)O[C@@H](O)[C@@H]1C(C)(C)CC[C@@H]2OC3=O (some centres not stated) ; IC50 observed: > 40 µM

###

# Tested on: MCF7
# protocolSummary: Cytotoxicity against human MCF7 cells assessed as cell viability after 48 hrs by MTS assay
# Format: functional, cell-based
# particulars: MCF7, 48 h
pIC50: −log10 of the molar value.
Below: a set of entries, each annotated with reported pIC50.

# count of solved cases: 6
{"compound": "COC[C@H]1C(=O)[C@]23C[C@@H]1C[C@@H](O)[C@H]2C12CO[C@@H](O)[C@@H]1C(C)(C)CC[C@@H]2OC3=O (stereo partly specified)", "pIC50": "< 4.40"}
{"compound": "C[C@H]1C(=O)[C@]23C[C@@H]1CC[C@H]2C12CO[C@@H](O)[C@@H]1C(C)(C)CC[C@@H]2OC3=O (stereo partly specified)", "pIC50": "< 4.40"}
{"compound": "C=C1[C@H]2CC[C@@H]3[C@](C2)(C(=O)O[C@H]2C[C@@H]4OC5O[C@@H](O)[C@H](C4(C)C)[C@@]523)[C@@H]1O", "pIC50": "< 4.40"}
{"compound": "CO[C@@H]1O[C@@H](O)[C@@H]2C(C)(C)CC[C@@H]3OC(=O)[C@@]45C[C@H](CC[C@H]4C132)[C@@H](C)C5=O (stereo partly specified)", "pIC50": "< 4.40"}
{"compound": "C[C@@H]1C(=O)[C@]23C[C@@H]1CC[C@H]2C12CO[C@@H](O)[C@@H]1C(C)(C)CC[C@@H]2OC3=O (stereo partly specified)", "pIC50": "< 4.40"}
{"compound": "C[C@H]1C(=O)[C@]23C[C@@H]1C[C@@H](O)[C@H]2C12CO[C@@H](O)[C@@H]1C(C)(C)CC[C@@H]2OC3=O (stereo partly specified)", "pIC50": "< 4.40"}

Tested on MCF7: C=C1[C@H]2C[C@@H](O)[C@H]3C45CO[C@@H]6OC[C@](C)(CC[C@@H]4OC(=O)[C@]3(C2)[C@@H]1O)[C@@H]65 (stereo partly specified) . Observed pIC50: < 4.40

Tested on MCF7: C=C1C(=O)[C@]23C[C@@H]1C[C@@H](O)[C@H]2C12C(O)O[C@@H]4OC(O)[C@](C)(CC[C@@H]1OC3=O)[C@@H]42 (stereo partly specified) . Observed pIC50: < 4.40

Tested on MCF7: C[C@H]1C(=O)[C@]23C[C@@H]1CC[C@H]2C12CO[C@@H](O)[C@@H]1C(C)(C)[C@@H](O)C[C@@H]2OC3=O (stereo partly specified) . Observed pIC50: < 4.40

Tested on MCF7: C=C1C(=O)[C@@]23C[C@@H]1C[C@H]1O[C@@H]4OC[C@]5([C@H](CCC(C)(C)[C@@H]45)OC2=O)[C@H]13 . Observed pIC50: 4.85

Tested on MCF7: C=C1C(=O)[C@]23C[C@@H]1C[C@@H](O)[C@H]2[C@@]12CO[C@@H](O)[C@@H]1C(C)(C)CC[C@@H]2OC3=O . Observed pIC50: 4.85

Tested on MCF7: C=C1C(=O)[C@]23C[C@@H]1CC[C@H]2[C@@]12CO[C@@H](O)[C@@H]1C(C)(C)CC[C@@H]2OC3=O . Observed pIC50: 5.47

Tested on MCF7: C=C1C(=O)[C@]23C[C@@H]1CC[C@H]2C12C(O)O[C@@H](O)[C@@H]1C(C)(C)CC[C@@H]2OC3=O (stereo partly specified) . Observed pIC50: < 4.40

Tested on MCF7: C=C1C(=O)[C@]23C[C@@H]1CC[C@H]2C12CO[C@@H](O)[C@@H]1C(C)(C)[C@@H](O)C[C@@H]2OC3=O (stereo partly specified) . Observed pIC50: 4.80

Tested on MCF7: COC[C@@H]1C(=O)[C@]23C[C@@H]1C[C@@H](O)[C@H]2C12CO[C@@H](O)[C@@H]1C(C)(C)CC[C@@H]2OC3=O (stereo partly specified) . Observed pIC50: < 4.40

Tested on MCF7: C=C1C(=O)[C@]23C[C@@H]1C[C@@H](O)[C@H]2C12CO[C@@H](O)[C@@H]1C(C)(C)[C@@H](O)C[C@@H]2OC3=O (stereo partly specified) . Observed pIC50: < 4.40

Value source: ChEMBL document CHEMBL3779809
